system under test: Monocarboxylate transporter 1 (Rattus norvegicus) (UniProt P53987)
Sequence (P53987 whole entry): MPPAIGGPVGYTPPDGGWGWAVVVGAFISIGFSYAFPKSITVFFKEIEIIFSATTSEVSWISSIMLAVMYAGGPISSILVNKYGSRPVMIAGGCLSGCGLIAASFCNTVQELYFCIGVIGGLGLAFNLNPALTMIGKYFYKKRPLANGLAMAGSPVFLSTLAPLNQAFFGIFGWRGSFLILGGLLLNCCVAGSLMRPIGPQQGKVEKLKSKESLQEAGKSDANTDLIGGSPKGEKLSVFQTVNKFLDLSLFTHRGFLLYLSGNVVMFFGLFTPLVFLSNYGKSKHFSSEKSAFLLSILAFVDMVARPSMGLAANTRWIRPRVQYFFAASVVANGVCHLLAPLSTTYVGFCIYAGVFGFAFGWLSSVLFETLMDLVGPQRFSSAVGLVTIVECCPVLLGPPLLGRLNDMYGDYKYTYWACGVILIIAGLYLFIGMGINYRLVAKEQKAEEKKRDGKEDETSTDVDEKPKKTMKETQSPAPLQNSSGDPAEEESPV
assay name: Inhibition of rat MCT1 expressed in human MDA-MB-231 cells in presence of [3H]-GHB by liquid scintillation spectroscopy analysis
Assay type: cell-based
Design: concentration or dose not given beside the values
condition: concentration not given here
quantity kind: inhibition (%)
API: value field is a number in %; no unit string.

O=c1c(O)c(-c2ccc(O)c(O)c2)oc2cc(O)cc(O)c12; 87
O=c1c(O)c(-c2ccc(O)c(O)c2)oc2cc(O)ccc12; 93
O=c1cc(-c2ccc(O)c(O)c2)oc2cc(O)cc(O)c12; 100
O=c1cc(-c2ccc(O)cc2)oc2cc(O)cc(O)c12; 50
O=c1c(O)c(-c2ccc(O)cc2O)oc2cc(O)cc(O)c12; 100

Consider now this further compound.
Lookup: Find the recorded inhibition belonging to COc1ccc(-c2cc(=O)c3c(O)cc(O)cc3o2)cc1O and report it.
Found: 49
